These measurements were taken from patent US20210079080A1.

Target: T1, VEGF-121-His (inhouse production) (human, UniProt P15692 207-395)
T1 construct: His-tagged human VEGF-A121 used in the ELISAs and (captured by an anti-His antibody) in SPR; also called hVEGF-A121; his VEGF; not shown: His tag
T1 sequence: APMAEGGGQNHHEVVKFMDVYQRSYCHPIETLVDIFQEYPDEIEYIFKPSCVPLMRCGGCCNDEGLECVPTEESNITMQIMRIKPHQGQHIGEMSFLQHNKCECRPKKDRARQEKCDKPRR
Assay: SPR (Biacore), hVEGF-A121 captured by anti-His antibody, Fab injected, 37° C
pKd: −log10 of the molar value.
The reader will find reported pKd values listed item by item below.

binder | pKd
VEGF-0114 Fab fragment (Fab, V domains shown, Fab with rabbit derived CLkappa and CH1; also called VEGR-0114 Fab) VH: EVQLVESGGGLVQPGGSLRLSCAASGFTFTNYAMTWVRQAPGKGLEWVSSIGSGGFYTYYADSVKGRFTISRDNSKNTLYLQMNSLRAEDTAVYYCAKGDNLFDSWGPGTLVTVSS VL: DIQMTQSPASLSASVGDRVTITCRASQSIYSSLNWYQQKPGKAPKLLIYASTLQSGVPSRFSGSASGTDFTLTISSLQPEDVATYYCQQYQNFPRTFGQGTKLEIKR | 10.27
VEGF-P1AE3520 Fab fragment (Fab, V domains shown) VH: EVQLVESGGGLVQPGGSLRLSCAASGFTFTNYAMTWVRQAPGKGLEWVSSIGNGPGIYTYYADSVKGRFTISRDNWKNTLYLQMNSLRAEDTAVYYCAKGDNLFDSWGPGTLVTVSS VL: DIQMTQSPASLSASVGDRVTITCRASQSIYSSLNWYQQKPGKAPKLLIYASTLQSGVPSRFSGSASGTDFTLTISSLQPEDVATYYCQQYQNFPRTFGQGTKLEIKR | 10.41
VEGF-0089 Fab fragment (Fab, V domains shown, also called antibody VEGF-0089) VH: EVQLVESGGGLVQPGGSLRLSCAASGFTFTNYAMTWVRQAPGKGLEWVSSIGNGGGIYTYYADSVKGRFTISRDNSKNTLYLQMNSLRAEDTAVYYCAKGDNLFDSWGPGTLVTVSS VL: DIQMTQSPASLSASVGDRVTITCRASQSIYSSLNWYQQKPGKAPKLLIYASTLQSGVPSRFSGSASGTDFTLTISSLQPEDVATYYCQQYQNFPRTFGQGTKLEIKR | 9.96
HF2-11 Fab fragment (Fab, V domains shown, Prior art antibody disclosed in EP3006465) VH: EVQLVESGGGLVQPGGSLRLSCAASGFLIRSHGMQWVRQAPGKGLEYVAGISSDGSWVKVAAAVEGRFTISRDDSKNTAYLQMNSLRAEDTAVYYCARDFSTGYGADSIDAWGQGTLVTVSS VL: DIQMTQSPSSLSASVGDRVTITCSGGSSEPLGYGWYQQKPGKAPKTLIYWDDKRPSGVPSRFSGSRSGTDFTLTISSLQPEDFATYYCGAWEYSGGVGIFGQGTKVEIKR | 10.21
HF2-5 Fab fragment (Fab, V domains shown, Prior art antibody disclosed in EP3006465) VH: EVQLVESGGGLVQPGGSLRLSCAASGFMIRSHGMQWVRQAPGKGLEYVAGISSDGSWARHSAAVEGRFTISRDDSKNTAYLQMNSLRAEDTAVYYCARDFSTGYGADSIDAWGQGTLVTVSS VL: DIQMTQSPSSLSASVGDRVTITCSGGSDSAYGYGWYQQKPGKAPKTLIYWDDKRPSGVPSRFSGSRSGTDFTLTISSLQPEDFATYYCGAWEYSGGVGIFGQGTKVEIKR | 9.96
